Entries with their measured Ki, system soluble human BACE1 catalytic domain (Homo sapiens (Human)):
quantity_name: Ki (nM)

1 = COC[C@H]1C[C@@H]2[C@](c3cc(Oc4cncc(OC)n4)ccc3F)(CO1)NC(=N)N(C)S2(=O)=O
2 = COC[C@H]1C[C@@H]2[C@](c3cc(Oc4cccnc4)ccc3F)(CO1)NC(=N)N(C)S2(=O)=O
Which one would you say has the larger Ki value: 1 , or 2 ? Output the label that corresponds to your choice. 2
(2: 39 nM, 1: 4.6 nM)

1 = C[C@H]1C[C@@H]2[C@](c3cc(Oc4cc(C#N)ccn4)ccc3F)(CO1)NC(=N)N(C)S2(=O)=O
2 = COC[C@H]1C[C@@H]2[C@](c3cc(OCC4CC4)ccc3F)(CO1)NC(=N)N(C)S2(=O)=O
3 = C[C@H]1C[C@@H]2[C@](c3cc(OCC4CC4)ccc3F)(CO1)NC(=N)N(C)S2(=O)=O
Order the records, beginning with the lowest Ki and ending with the highest. In plain terms: list the labels in the order you were asked to. 1, 2, 3

a = COC[C@H]1C[C@@H]2[C@](c3cc(Oc4ncncc4F)ccc3F)(CO1)NC(=N)N(C)S2(=O)=O
b = COC[C@H]1C[C@@H]2[C@](c3cc(Oc4cc(F)cnc4F)ccc3F)(CO1)NC(=N)N(C)S2(=O)=O
Pick the one with the larger Ki: a vs b Your choice should be expressed through its label. a
(a: 5.9 nM, b: 2.1 nM)
